Tested on: CP252
Assay: qHTS profiling for inhibitors of Plasmodium falciparum proliferation (AID 504749); further: nearly all actives have a fitted effect of over 60% in size
Details: P. falciparum in erythrocytes, SYBR Green DNA, 72 h; series mostly up to 28.7 µM
Inconclusive results are not listed. Calls of active or inactive are those of the source. The call rests on the fitted dose curve; in most records, active means well fitted inhibition curve with a large enough effect; inconclusive means small, poorly fitted or top-dose-only effect; inactive means flat fitted curve, though single readings scatter.
Outcome (select one): active, inactive

O=C(NCCc1c[nH]c2ccccc12)c1cccnc1 : inactive

# next compound below
INPUT: # lookup: test call for `Cc1ncc(CO)c(C=O)c1O`
OUTPUT: inactive

====

Assay: qHTS of pediatric cancer cell lines to identify multiple opportunities for drug repurposing: Primary screen for Rh30 cells (AID 1347107); further: nearly all actives have a fitted effect of over 75% in size
Conditions: Rh30 rhabdomyosarcoma viability, CellTiter-Glo luminescence, 48 h; series mostly up to 46 µM
Results filed as inconclusive are left out. Activity calls are given as the source filed them. Calls come from the whole dose curve; as a rule, active = well fitted cell-killing curve with a large enough effect; inconclusive = small, poorly fitted or top-dose-only effect; inactive = no such curve, though single readings can be large or run the other way.
Measurement name: outcome

// worked examples, outcome included
COc1cc(NS(=O)(=O)c2ccc(N)cc2)ncn1 : inactive
CCOC(=O)c1ccc(N)cc1 : inactive
Cc1ccc(S(=O)(=O)NC(=O)NC2CCCC2)cc1 : inactive
O=C(Nc1ccc([N+](=O)[O-])cc1)Nc1ccc([N+](=O)[O-])cc1 : inactive
Cc1nc(-c2ccc(Cl)cc2)oc1COC(C)(C)C(=O)O : inactive

INPUT: Supply reported outcome belonging to this compound: `CN1CCN(c2cc3c(cc2F)c(=O)c(C(=O)O)cn3-c2ccc(F)cc2)CC1`
OUTPUT: inactive
